molecular target: 5-HT1A receptor (Homo sapiens (Human)); assay: Affinity for 5-HT1A receptors, radioligand competition with [3H]-LSD; format: binding; details: 293T membrane transiently expressing 5-HT1A; [3H]-LSD; read-out: 5-HT1A affinity Ki;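 further: membranes from cells transiently transfected with 5-HT1A receptor, bound [3H]-LSD displaced by compound at 10^-9 to 10^-5 M, 2 h incubation at room temperature in the dark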
Sequence (P08908 whole entry): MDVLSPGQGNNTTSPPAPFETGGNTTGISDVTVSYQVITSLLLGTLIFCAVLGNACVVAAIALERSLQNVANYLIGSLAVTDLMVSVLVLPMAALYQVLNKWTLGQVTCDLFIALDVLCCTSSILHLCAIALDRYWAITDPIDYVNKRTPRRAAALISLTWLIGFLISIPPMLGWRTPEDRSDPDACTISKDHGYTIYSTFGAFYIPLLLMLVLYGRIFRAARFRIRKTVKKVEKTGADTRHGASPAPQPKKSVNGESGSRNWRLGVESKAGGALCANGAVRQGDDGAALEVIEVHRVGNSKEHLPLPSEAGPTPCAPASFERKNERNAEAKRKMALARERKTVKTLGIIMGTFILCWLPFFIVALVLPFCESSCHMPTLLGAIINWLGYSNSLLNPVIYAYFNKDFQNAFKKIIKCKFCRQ
measure: pKi
Lab note: report pKi as minus log10 of the concentration in molar units, number only.

Query block: Specify reported pKi for the molecule shown: CN(C)C(=O)N[C@H]1CC[C@H](CCN2CCN3c4cccc5scc(c45)C[C@@H]3C2)CC1 [(+)-I-27]
Result block: 6.77

Query block: For the molecule O=C(NCCN1CCN2c3cccc4scc(c34)CC2C1)C1CCOCC1 (stereo not shown) , give its reported pKi.
Result block: 5.89

Query block: Please report the measured pKi for O=C1NCCN1c1cccc(CN2CCN3c4cccc5scc(c45)CC3C2)c1 (stereo not shown)
Result block: 5.26

Query block: Please report pKi for the following molecule: O=C(CCCN1CCN2c3cccc4scc(c34)CC2C1)c1ccc(F)cc1 (stereo not shown)
Result block: 5.34

Query block: Kindly indicate its recorded pKi. Item: O=C(NCCN1CCN2c3cccc4scc(c34)CC2C1)c1ccc(F)cc1 (stereo not shown)
Result block: 6.23

Query block: Look up and report measured pKi for this entry: O=C1c2ccccc2CCCN1CCCCN1CCN2c3cccc4scc(c34)CC2C1 (stereo not shown)
Result block: 6.11

Query block: Return the recorded pKi value; entry: CCCN1CCN2c3cccc4scc(c34)CC2C1 (stereo not shown)
Result block: 5.47

Query block: Return reported pKi. Input molecule: O=C1CCc2ccc(OCCCCN3CCN4c5cccc6scc(c56)CC4C3)cc2N1 (stereo not shown)
Result block: 6.80

Query block: Tell me pKi reported for O=C1CCc2ccc(OCCCN3CCN4c5cccc6scc(c56)CC4C3)cc2N1 (stereo not shown)
Result block: 8.00

Query block: Please look at this molecule and report its pKi: c1cc2c3c(csc3c1)CC1CN(CC3CC3)CCN21 (stereo not shown)
Result block: 6.23

The origin of these recorded values is patent US20240383913A1.
